Hey, just so you know, these numbers are from paper PMC10397247.

- target-of-assay: T1, 4H855-bH
- T1 chain: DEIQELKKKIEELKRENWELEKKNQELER
- protocol-description: two-hybrid library CCNG1;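 further: natural log of median RNA to DNA barcode read ratio; higher means stronger binding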
Recorded interaction score by entry
Returns: the value as a bare number; no unit string appended.

Previously resolved entries follow.
# binder, result
data = [
    ("DEIQELKKKIEELEREIWELKKENQELKR [4H780-bH]", 0.0924),
    ("DEIQELKKENEELERKIWELKKENQELER [4H683-bH]", -0.174),
]

Query: Kindly indicate its recorded interaction score. Item: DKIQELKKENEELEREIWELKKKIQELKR [4H2702-bH]
Reply: -0.0377

Query: Give the reported interaction score for this binder. DEIQELKKEIEELERKNWELKKKNQELER [4H575-bH]
Reply: 1.37

Query: Specify reported interaction score for the binder shown: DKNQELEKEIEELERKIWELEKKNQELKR [4H3112-bH]
Reply: -2.78

Query: Give interaction score for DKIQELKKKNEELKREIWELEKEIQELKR [4H3010-bH]
Reply: -0.95
